The reported numbers originate from patent US20240408216A1.

Assign IC50 to each entry below.
Molecular target: BaF3 (EGFR Del19/C797S) (Homo sapiens, UniProt P00533, C797S, cells depend on it, form not given)
Construct: BaF3 (EGFR Del19/C797S)|DC|RPMI1640 + 10% FBS
Sequence (P00533 with tags, fused parts or gaps DEL746-750/C797S, form open): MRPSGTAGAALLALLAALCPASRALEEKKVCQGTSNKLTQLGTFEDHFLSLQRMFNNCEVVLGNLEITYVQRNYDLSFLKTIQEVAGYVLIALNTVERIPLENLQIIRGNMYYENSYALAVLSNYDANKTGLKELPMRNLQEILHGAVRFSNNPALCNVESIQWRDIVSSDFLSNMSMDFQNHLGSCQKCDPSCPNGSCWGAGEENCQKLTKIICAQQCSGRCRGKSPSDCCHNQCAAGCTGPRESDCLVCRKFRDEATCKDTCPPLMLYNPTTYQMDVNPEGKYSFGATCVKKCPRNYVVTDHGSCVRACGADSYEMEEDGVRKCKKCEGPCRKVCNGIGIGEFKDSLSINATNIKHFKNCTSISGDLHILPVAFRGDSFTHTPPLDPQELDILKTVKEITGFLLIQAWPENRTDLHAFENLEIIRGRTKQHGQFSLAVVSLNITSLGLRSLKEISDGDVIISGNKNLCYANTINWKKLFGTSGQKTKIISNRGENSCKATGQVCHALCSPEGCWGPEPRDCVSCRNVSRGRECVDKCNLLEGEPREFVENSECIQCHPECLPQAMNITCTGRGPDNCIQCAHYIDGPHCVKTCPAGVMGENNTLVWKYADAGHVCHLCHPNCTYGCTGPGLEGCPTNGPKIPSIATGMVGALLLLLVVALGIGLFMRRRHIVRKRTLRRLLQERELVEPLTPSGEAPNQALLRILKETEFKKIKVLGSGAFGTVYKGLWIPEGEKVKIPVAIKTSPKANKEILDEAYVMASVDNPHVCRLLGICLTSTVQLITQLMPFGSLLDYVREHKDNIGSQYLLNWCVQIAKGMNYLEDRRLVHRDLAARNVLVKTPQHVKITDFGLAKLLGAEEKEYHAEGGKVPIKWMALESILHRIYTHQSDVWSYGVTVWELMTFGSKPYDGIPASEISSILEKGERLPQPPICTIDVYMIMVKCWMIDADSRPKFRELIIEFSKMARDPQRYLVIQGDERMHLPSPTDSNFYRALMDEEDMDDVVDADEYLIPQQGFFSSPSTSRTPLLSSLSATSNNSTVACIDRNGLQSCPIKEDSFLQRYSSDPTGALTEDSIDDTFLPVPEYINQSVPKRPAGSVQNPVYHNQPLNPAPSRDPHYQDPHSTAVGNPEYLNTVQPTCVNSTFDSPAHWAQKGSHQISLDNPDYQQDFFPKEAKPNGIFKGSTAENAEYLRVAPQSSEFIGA
Assay: Cell proliferation IC50 assay (Cell Titer GLO), BaF3 DC cells
Type: cell-based, mouse
Conditions: Table 7, 72 h
Just the number in nM, nothing appended.

Lookup: # lookup: IC50 of CCc1cc(Nc2ncc(-c3cnn(C)c3)c(Nc3ccccc3P(C)(C)=O)n2)c(OC)cc1N1CCC(N2CCN(CCOc3cccc4c3CN(C3CCC(=O)NC3=O)C4=O)CC2)CC1 (centres unmarked)
Found: 0.1

Lookup: Can you share its IC50? I mean this molecule: CCc1cc(Nc2ncc(Cl)c(Nc3ccccc3P(C)(C)=O)n2)c(OC)cc1N1CCC(N2CCN(CCCCCc3ccc4c(c3F)CN(C3CCC(=O)NC3=O)C4=O)CC2)CC1 (centres unmarked)
Found: 2.7

Lookup: Value lookup for IC50; key = CCc1cc(Nc2ncc(Cl)c(Nc3ccccc3P(C)(C)=O)n2)c(OC)cc1N1CCC(N2CCN(CCOc3cccc4c3CN(C3CCC(=O)NC3=O)C4=O)CC2)CC1 (centres unmarked)
Found: 1.3

Lookup: Using the record for CCc1cc(Nc2ncc(Cl)c(Nc3ccccc3P(C)(C)=O)n2)c(OC)cc1N1CCC(N2Cc3ccc(Oc4cccc5c4CN(C4CCC(=O)NC4=O)C5=O)cc3C2)CC1 (centres unmarked) , report its IC50.
Found: 3.2

Lookup: I have this molecule here, COc1cc(N2CCC3(CCN(CCCC#Cc4cccc5c4CN(C4CCC(=O)NC4=O)C5=O)CC3)CC2)c(C)cc1Nc1ncc(Br)c(Nc2ccc3ccccc3c2P(C)(C)=O)n1 (centres unmarked) , and I need its recorded IC50.
Found: 16.2
